The origin of these recorded values is patent US20230002360A1.

This section lists IC50 readings for CYP2D6 (Homo sapiens, UniProt P10635).

Compound	Tested system	IC50
CCCCOCCOc1ccc(-c2ccc3c(c2)/C=C(/C(=O)Nc2ccc([S@@+]([O-])Cc4cncn4CCC)cc2)CCCN3CC2CC2)cc1 [Reference A, reference compound]	CYP2D6 (Homo sapiens, UniProt P10635)	> 50 µM

With those in mind, consider the next compound.
Q: Reported IC50, compound CCCCOCCOc1ccc(-c2ccc3c(c2)/C=C(/C(=O)Nc2ccc([S@@+]([O-])Cc4cncn4CCC)cc2)CCCN3CC(C)C)cc1 [(CVC), Cenicriviroc, reference compound] : ____
Ans: > 50 µM

###

Assignment: determine reported pIC50 for the given compounds.
Tested system: CYP3A4 (Homo sapiens, UniProt P08684)
Construct: from tissue; host or cells: human liver microsomes
Sequence (P08684 whole entry): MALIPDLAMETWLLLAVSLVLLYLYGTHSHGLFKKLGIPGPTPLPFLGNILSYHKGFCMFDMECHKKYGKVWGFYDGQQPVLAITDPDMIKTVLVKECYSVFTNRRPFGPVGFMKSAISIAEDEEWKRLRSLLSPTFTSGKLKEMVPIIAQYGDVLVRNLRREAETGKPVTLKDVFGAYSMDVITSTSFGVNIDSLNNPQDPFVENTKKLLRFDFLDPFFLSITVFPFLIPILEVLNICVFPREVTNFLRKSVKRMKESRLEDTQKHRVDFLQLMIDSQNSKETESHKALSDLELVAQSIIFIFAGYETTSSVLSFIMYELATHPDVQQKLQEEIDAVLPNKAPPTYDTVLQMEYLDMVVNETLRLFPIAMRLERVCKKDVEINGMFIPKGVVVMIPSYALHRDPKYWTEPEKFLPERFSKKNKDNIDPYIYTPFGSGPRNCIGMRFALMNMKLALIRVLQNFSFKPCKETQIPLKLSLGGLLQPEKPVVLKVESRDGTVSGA
Procedure details: Inhibition of human liver microsomal CYP3A4 (midazolam probe)
Assay type: in vitro ADME
Protocol conditions: human liver microsomes, midazolam; read-out: Half inhibitory concentration IC50, CYP3A4-M
Experimental: Inhibition of human liver microsomal cytochrome P450 isoenzymes (CYP1A2, CYP2C9, CYP2C19, CYP2D6 and CYP3A4) activity A total of 5 specific probe substrates of 5 CYP isozymes, which are phenacetin (PHenacetin, CYP1A2), diclofenac (Diclofenac, CYP2C9), (S)-mephenytoin ((S)-MepHenytoin, CYP2C19), dextromethorpHan (CYP2D6), and midazolam (Midazolam, CYP3A4), were incubated with human liver microsomes respectively. […]
Numbers only, as −log10 of the molar value.

Worked examples, 2 compounds total:
Compound	Measured value
CCCCOCCOc1ccc(-c2ccc3c(c2)/C=C(/C(=O)Nc2ccc([S@@+]([O-])Cc4c(C)ncn4CC)cc2)CCCN3CC2CCOCC2)cc1	4.88
CCCCOCCOc1ccc(-c2ccc3c(c2)/C=C(/C(=O)Nc2ccc([S@@+]([O-])Cc4cncn4CCC)cc2)CCCN3CC(C)C)cc1 [(CVC), Cenicriviroc, reference compound]	6.12

With those in mind, consider the next compound.
Q: Reported pIC50, compound CCCCOCCOc1ccc(-c2ccc3c(c2)/C=C(/C(=O)Nc2ccc([S@@+]([O-])Cc4cncn4CCC)cc2)CCCN3CC2CC2)cc1 [Reference A, reference compound] : ____
Ans: 6.10
